FYI, the data here is from ChEMBL document CHEMBL1201862.

- Test system: SF-295
- test name: NCI tumour cell line growth inhibition, 48 h
The source made the active and inactive calls. Cut-off read from the data, not from the text of the source: active = GI50 up to about 1.1 µM and inactive = higher.
In this exercise, the only acceptable responses are T for active, F for inactive

The following compounds have reported results that may help.
{"compound": "COc1cc(C2C(Cl)C(=O)N2NC(=O)c2ccc(N)cc2)cc(Br)c1O (configuration not stated)", "answer label": "F"}
{"compound": "Cc1nc2c(O)c3c(c(O)c2nc1C)C1C=CC3CC1", "answer label": "F"}
{"compound": "C=CCOCn1ccc(N)nc1=O", "answer label": "F"}

// query Lab log entry: CCOP1(=O)CC(C)=C(Cl)C(O)C1 (configuration not stated) — outcome as called in the assay?
// result F

// query Lab log entry: CC(C(=O)c1ccccc1)C(c1ccccc1)N1CCOCC1 (configuration not stated) — outcome as called in the assay?
// result F
